Reference source for all entries: ChEMBL document CHEMBL5058577

Tested on: HEK-293T
Protocol Description: Multiplex assay against HEK293T
Type: toxicity, cell-based
Cond: human, 24 h, 1 µM, compound concentration 1 uM, replicate 1
Consider the following molecules; for each one, report its Population Mitotic Cells (%).
Numbers only, in %.

Cl.N=C(N)NC(=O)Cc1c(Cl)cccc1Cl [GUANFACINE HYDROCHLORIDE]; 63
Cc1sc2c(c1C)C(c1ccc(Cl)cc1)=N[C@@H](CC(=O)NCCCCCCCCNC(=O)COc1cccc3c1C(=O)N(C1CCC(=O)NC1=O)C3=O)c1nnc(C)n1-2 (some centres undefined); 48

For each of the items listed, what is its Population Mitotic Cells (%)?
1. NCCc1cn(S(=O)(=O)c2c(Cl)nc3sccn23)c2ccccc12.O=C(O)C(=O)O
2. O=C(CCCc1ccccc1)Nc1nc2ccccc2c(=O)s1

Key:
1: 66; 2: 79

For each of the items listed, what is its Population Mitotic Cells (%)?
1. CN[C@@H](C)C(=O)N[C@H](C(=O)N1CCC[C@H]1C(=O)Nc1snnc1-c1ccccc1)C1CCCCC1 [GDC-0152]
2. Cc1noc(-c2ccc(-c3ccc(CC(=O)O)cc3)cc2)c1NC(=O)O[C@H](C)c1ccccc1Cl
3. CCCOc1ccc2[nH]cc(C3=CCNCC3)c2n1.Cl
4. CCCCC(=O)N(Cc1ccc(-c2ccccc2-c2nnn[nH]2)cc1)[C@H](C(=O)O)C(C)C
5. CCc1cc2cc(NS(=O)(=O)c3ccc(C#N)cc3)ccc2n(CC)c1=O

Key:
69
77
71
70
70

* * *

System: Fibroblast
Protocol Description: Multiplex assay against human fibroblast
Format: toxicity, cell-based
Cond: 12 h, 10 µM, compound concentration 10 uM, replicate 2
# if measured Population Membrane Permeable-Phenotype (%) < 6%: TRUE  # else: FALSE

N#Cc1c(Oc2cccc(OS(=O)(=O)CCCC(F)(F)F)c2)cccc1C(F)(F)F; FALSE
O=C(CCCc1ccccc1)Nc1nc2ccccc2c(=O)s1; FALSE
CN1CCN(c2cc(-c3ccccc3)nc(N)n2)CC1; FALSE
CC(C)(C)c1cc(NC(=O)Nc2ccc(-c3cn4c(n3)sc3cc(OCCN5CCOCC5)ccc34)cc2)no1; TRUE
CC(C)COc1ccc(CNC(=O)N(Cc2ccc(F)cc2)C2CCN(C)CC2)cc1; TRUE

Exercise: Threshold test, Population Membrane Permeable-Phenotype (%) < 6%: `C[C@H](N)COC(=O)[C@@H](CCCCN)NC(=O)Cc1c(-c2ccc3ccccc3c2)[nH]c2c1ccc1ccccc12`
Key: TRUE

Exercise: Threshold test, Population Membrane Permeable-Phenotype (%) < 6%: COC[C@@H](c1ccc(C(F)(F)F)cc1)N1CCN(C2(C)CCN(C(=O)c3c(C)ncnc3C)CC2)C[C@@H]1C.O=C(O)/C=C\C(=O)O [VICRIVIROC MALEATE]
Key: FALSE

* * *

Test system: Fibroblast
Protocol Description: Multiplex assay against human fibroblast
Assay type: toxicity, cell-based
Cond: 48 h, 1 µM, compound concentration 1 uM, replicate 1
Parameter Measured: Population Membrane Permeable-Phenotype (%)
One number for each entry, in %.

CCc1cc2cc(NS(=O)(=O)c3ccc(C#N)cc3)ccc2n(CC)c1=O; 0
CC(C)COc1ccc(CNC(=O)N(Cc2ccc(F)cc2)C2CCN(C)CC2)cc1 [PIMAVANSERIN]; 1
CCCCC1=NC2(CCCC2)C(=O)N1Cc1ccc(-c2ccccc2-c2nnn[nH]2)cc1 [IRBESARTAN]; 0
Cc1cnc(-c2cc(N3CCN(C(=O)CCS(C)(=O)=O)CC3)ncc2Cl)c(C)c1; 0

For each of the items listed, what is its Population Membrane Permeable-Phenotype (%)?
1. CC(=O)Nc1cccc2c1c(Sc1ccc(Cl)cc1)c(C)n2CC(=O)O [AZD1981]
2. COc1ccccc1N1CCN(C[C@@H](C(=O)NC(C)(C)C)c2ccccc2)CC1.Cl.Cl
3. Cl.NCCc1ccc(O)c(O)c1 [DOPAMINE HYDROCHLORIDE]
4. CC(C)(C)c1cc(NC(=O)Nc2ccc(-c3cn4c(n3)sc3cc(OCCN5CCOCC5)ccc34)cc2)no1 [QUIZARTINIB]
5. NCCc1cn(S(=O)(=O)c2c(Cl)nc3sccn23)c2ccccc12.O=C(O)C(=O)O

Key:
1: 1; 2: 1; 3: 1; 4: 0; 5: 2
